Reference source for all entries: PubChem BioAssay (NCI)

# System: M14 melanoma
# assay.procedure: NCI-60 one-dose screen, 48 h
# study.conditions: 10 µM unless noted
About 83,000 compounds went through this panel and 20% of them were active in at least one assay; those are over-represented in the sample as a whole. Active and inactive are the calls of the source. Rule for the calls: active = growth percent below 10; inactive = the rest.
Your reply should match one of these outcome classes. label 1 for active, label 0 for inactive

Q: Query: recorded result category for CCOC(=O)c1ccc(NC(=S)NC(=O)c2cccc(NC(=O)c3ccc(C)cc3)c2)cc1 in this test
Ans: label 0

Q: Record request — test call for N/C(=N\c1nc2ccccc2s1)NC(=O)Nc1ccccc1F
Ans: label 0

Q: Please share the test call associated with O=C1Nc2ccccc2/C1=C\c1ccc(OCC(=O)c2ccc(Br)cc2)cc1 .
Ans: label 0

Q: Recorded call for N#CC1=C(c2ccco2)Nc2c(c(-c3ccccc3)nn2-c2ccccc2)C12C(=O)Nc1ccc(Br)cc12 (centres undefined) ?
Ans: label 0

Q: # outcome recorded in this test, key = Nc1nc(-c2ccccc2)c(N=Nc2ccc(Cl)cc2Cl)s1
Ans: label 1

Q: Returns: the outcome recorded for COc1ccc(N=Nc2c(N)nn3c(N)c(C#N)c(-c4ccc(F)cc4)nc23)cc1 in this assay.
Ans: label 0

Q: Test call, this compound: Cc1nn(-c2ccccc2)c2nc(C)n(CC(=O)N/N=C/c3ccccc3O)c(=O)c12
Ans: label 1

Q: Test call for this compound, please: Nc1cc2ccccc2c(=O)n1NC(=O)c1ccccc1
Ans: label 0

Q: What was the test verdict on O=C1c2cccc3c(N4CCN(c5ccccc5)CC4)ccc(c23)C(=O)N1c1cccc(-c2nn(-c3ccccc3)cc2-c2nc3ccccc3s2)c1 ?
Ans: label 0

Q: So what was the verdict on O=C(N/N=C/c1ccc(-c2cccc([N+](=O)[O-])c2)s1)c1[nH]c2ccc(Br)cc2c1-c1ccccc1 in this test?
Ans: label 0

Q: // return assay outcome for COc1ccc(S(=O)(=O)Nc2ccc(-c3ccc4c(c3)NC(=O)/C4=C\c3ccc[nH]3)cc2)cc1OC
Ans: label 1

Q: Write down the call the test reported for this compound. Item: O=C(/C=C1\C(=O)N(Cc2ccccc2)c2ccccc21)c1cc2ccccc2oc1=O
Ans: label 0

Q: What classification did COC(=O)c1c(C(=O)OC)c2ccc3c4ccccc4ccc3n2c1C(=O)C(C)Br (centres undefined) end up with in this test?
Ans: label 0

Q: What did this assay record as the result for COc1ccc(N=Nc2c(N)nn3c(N)c(C#N)c(-c4ccc(C)cc4)nc23)cc1 ?
Ans: label 0

Q: Could you kindly confirm the outcome this assay logged for Nc1nn2c(-c3cc4ccccc4oc3=O)ccnc2c1N=Nc1ccccc1 ?
Ans: label 0

Q: Outcome? COc1cc(-c2ccc3ncnc(N4CCc5ccc(Cl)cc54)c3c2)cnc1Cl
Ans: label 0

Q: What classification did Cn1cc(-c2cc(N)n3nc(-c4c[nH]c5ccc(Cl)cc45)cc3n2)c2cccnc21 end up with in this test?
Ans: label 1

Q: Tell me the assay call for COc1ccc(OC)c(Cn2cc(C#N)c(N)c2C(=O)c2ccc(Br)cc2)c1 please.
Ans: label 0

Q: What was the test verdict on Nc1nnc(-c2cncc(Br)c2)c(-c2c[nH]c3ccc(Cl)cc23)n1 ?
Ans: label 0

Q: Which outcome did this test record for the compound Cc1nc(N)ncc1-c1ccc2ncnc(N3CCc4cc(F)c(Cl)cc43)c2c1 ?
Ans: label 0

Q: Identify the outcome logged in this assay for the compound shown: CC(Nc1ncnc2ccc(-c3ccc4oc(N)nc4c3)cc12)c1ccccc1 (centres undefined)
Ans: label 0

Q: For Cc1ccccc1Nc1nnc(-c2c[nH]c3ccccc23)o1 , which call appears in the assay record?
Ans: label 1

Q: I'd appreciate the recorded outcome for Cc1cc(=O)oc2cc(OCC(O)CNN3C(=O)c4cccc5c(N6CCN(C)CC6)ccc(c45)C3=O)ccc12 (centres undefined) from this test.
Ans: label 0

Q: Dear all, I need the recorded test outcome for COc1ccc(-c2cc(C)nc3[nH]c(=O)sc23)cc1 , thank you.
Ans: label 0

Q: What did the test return for Clc1ccc(-c2nc3c4c(-c5ccccc5)c(-c5ccccc5)n(Cc5ccccc5)c4ncn3n2)cc1 ?
Ans: label 0

Q: Record lookup: outcome of this test for COc1ccc(NC(=O)CSc2nnc(-c3ccc(-c4nc5ccc(Cl)cc5[nH]4)cc3)o2)cc1 ?
Ans: label 0

Q: // return assay outcome for COc1ccc(-c2cc(C(=O)OCc3ccc(Br)cc3)nn2-c2ccc(S(C)(=O)=O)cc2)cc1OC
Ans: label 0

Q: What call does the record list for CC1=C(C)C(=O)C(NCCN2CCOCC2)=C(Br)C1=O ?
Ans: label 0

Q: For COc1ccc2c(c1)C(Sc1ccc(Cl)cc1)c1c(nc(N)c(C#N)c1N)O2 (centres undefined) , which call appears in the assay record?
Ans: label 0

Q: Assay outcome for N#Cc1c(-c2ccc(F)cc2)nc(SCc2ccc(F)cc2)nc1N1CCNCC1 : what was it?
Ans: label 1

Q: How was COc1ccc(SC2c3cc(OC)ccc3Oc3nc(N)c(C#N)c(N)c32)cc1 (centres undefined) classified in this test?
Ans: label 0

Q: Look up the recorded call for N/C(=N\c1nc2ccccc2s1)NC(=O)Nc1ccccc1[N+](=O)[O-] in this test.
Ans: label 0

Q: Look up the recorded call for CCOC(=O)/C(F)=C/C1CC1C(c1ccccc1)c1ccccc1 (centres undefined) in this test.
Ans: label 0

Q: Which outcome did this test record for the compound O=C(N/N=C/c1c[nH]c2ccccc12)Nc1ccccc1Cl ?
Ans: label 0

Q: Returns: the outcome recorded for CC(C)(C)C(=O)c1c2c(c3ccc4c5ccccc5ccc4n13)C(=O)c1ccccc1C2=O in this assay.
Ans: label 0

Q: Returns: the outcome recorded for COc1ccc(-c2nc3ccccc3n2CC(=O)N=Nc2c(O)[nH]c3ccc(Br)cc23)cc1 in this assay.
Ans: label 0

Q: Look up the recorded call for COc1sc(/C=N/NC(=O)c2[nH]c3ccc(Br)cc3c2-c2ccccc2)cc1Br in this test.
Ans: label 0

Q: For this compound, state the assay outcome: O=S(=O)(c1nc(-c2ccc(Br)cc2)oc1-c1ccc(Cl)cc1)N1CCCC(O)C1 (centres undefined)
Ans: label 0

Q: Write down the call the test reported for this compound. Item: COc1ccc(N=Nc2c(N)nn3c(-c4cc5cc(Br)ccc5oc4=O)ccnc23)cc1
Ans: label 0
